Biological target: Adenosine receptor A1 (Homo sapiens) (UniProt P30542)
Sequence (whole entry): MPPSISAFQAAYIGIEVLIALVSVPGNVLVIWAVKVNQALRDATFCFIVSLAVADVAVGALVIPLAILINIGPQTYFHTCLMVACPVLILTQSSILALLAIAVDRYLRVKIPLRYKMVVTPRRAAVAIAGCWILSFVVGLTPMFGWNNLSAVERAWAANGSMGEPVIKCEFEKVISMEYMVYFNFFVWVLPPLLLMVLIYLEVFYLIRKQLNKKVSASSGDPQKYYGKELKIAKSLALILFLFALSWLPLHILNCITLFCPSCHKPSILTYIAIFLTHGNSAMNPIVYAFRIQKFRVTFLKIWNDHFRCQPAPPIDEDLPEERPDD
Test: Displacement of [3H]DPCPX from human adenosine A1 receptor expressed in CHO cell membranes at 1 uM after 60 mins
Each entry below carries its reported inhibition.
Supply the numeric figure in %, leaving out any unit text.

Below, 4 compounds whose answers are already recorded.
## Task Report inhibition for CCOC(=O)C1=C(C)N/C(=N\C#N)NC1c1ccco1 (racemic) please.
## Result 27

## Task # inhibition lookup, item CC1=C(C(=O)OC(C)C)C(C2CCCC2)N/C(=N/C#N)N1 (racemic)
## Result 3

## Task Need inhibition of CC1=C(C(=O)OC(C)C)C(c2ccccc2)N/C(=N/C#N)N1 (racemic) , thanks.
## Result 20

## Task Which value of inhibition has been reported for CC1=C(C(=O)OC(C)C)C(c2cccs2)N/C(=N/C#N)N1 (racemic) in the records?
## Result 31

Now for another entry.
## Task Which measured inhibition value corresponds to CCOC(=O)C1=C(C)NC(=O)NC1c1ccccc1 (stereo not given) ?
## Result 1
